- System: T. congolense DA-Res
- Format: cell-based, Trypanosoma congolense
- stated conditions: Trypanosoma congolense, read-out: T. congolense EC50, DA-Res
# note: boundary value 50 µM maps to condition not met; EC50 below it maps to condition met

{"compound": "N=C(N)c1ccc(/N=N/Nc2ccc(C(=N)N)cc2)cc1 [Diminazene, diminazene aceturate, reference compound]", "tested target": "T. congolense DA-Res", "class label": "condition met"}
{"compound": "COc1cc(O)c(OC)c2c1C(=O)CC(c1ccccc1)O2 (centres unmarked) [Compound 4, 5,8-dimethoxy-7-hydroxyflavanone]", "tested target": "T. congolense DA-Res", "class label": "condition met"}
{"compound": "COc1cc(OC)c2c(c1)OC(c1ccccc1)CC2=O (centres unmarked)", "tested target": "T. congolense DA-Res", "class label": "condition not met"}
{"compound": "COc1cc(O)c(C(=O)/C=C/c2ccccc2)c(OC)c1 [Compound 1, 2′,4′-dimethoxy-6′-hydroxychalcone]", "tested target": "T. congolense DA-Res", "class label": "condition met"}
{"compound": "COc1cc(O)c(OC)c(O)c1C(=O)/C=C/c1ccccc1 [Compound 2, 2′,5′-dimethoxy-4′,6′-dihydroxychalcone]", "tested target": "T. congolense DA-Res", "class label": "condition met"}

###

- Test system: T. b. brucei B48
- measurement protocol: Alamar Blue (resazurin) assay, multi-drug resistant T. b. brucei B48
- Assay type: cell-based
- stated conditions: Trypanosoma brucei, read-out: T. b. brucei EC50, B48
pEC50: −log10 of the molar value.

{"compound": "N=C(N)c1ccc(/N=N/Nc2ccc(C(=N)N)cc2)cc1 [Diminazene, diminazene aceturate, reference compound]", "pEC50": 5.62}
{"compound": "COc1cc(O)c(OC)c2c1C(=O)CC(c1ccccc1)O2 (stereo not drawn) [Compound 4, 5,8-dimethoxy-7-hydroxyflavanone]", "pEC50": 4.28}
{"compound": "N=C(N)c1ccc(OCCCCCOc2ccc(C(=N)N)cc2)cc1 [Pentamidine, reference compound]", "pEC50": 6.14}
{"compound": "COc1cc(O)c(C(=O)/C=C/c2ccccc2)c(OC)c1 [Compound 1, 2′,4′-dimethoxy-6′-hydroxychalcone]", "pEC50": 5.74}
{"compound": "COc1cc(O)c(OC)c(O)c1C(=O)/C=C/c1ccccc1 [Compound 2, 2′,5′-dimethoxy-4′,6′-dihydroxychalcone]", "pEC50": 4.86}
{"compound": "COc1cc(OC)c2c(c1)OC(c1ccccc1)CC2=O (stereo not drawn)", "pEC50": 4.52}

###

Each item that follows carries a reported EC50 at 54 h.
- measurement protocol: Drug toxicity assay in human foreskin fibroblast (HFF) cells, resazurin
- Format: cell-based
- stated conditions: HFF (human foreskin fibroblast) cells; human foreskin fibroblasts; highest concentration tested 100 µg/mL; mean ± SEM, n>=3

{"compound": "COc1cc(OC)c2c(c1)OC(c1ccccc1)CC2=O (stereo not shown)", "EC50 at 54 h": "> 350 µM"}
{"compound": "COc1cc(O)c(C(=O)/C=C/c2ccccc2)c(OC)c1 [Compound 1, 2′,4′-dimethoxy-6′-hydroxychalcone]", "EC50 at 54 h": "> 350 µM"}
{"compound": "COc1cc(O)c(OC)c2c1C(=O)CC(c1ccccc1)O2 (stereo not shown) [Compound 4, 5,8-dimethoxy-7-hydroxyflavanone]", "EC50 at 54 h": "> 330 µM"}
{"compound": "COc1cc(O)c(OC)c(O)c1C(=O)/C=C/c1ccccc1 [Compound 2, 2′,5′-dimethoxy-4′,6′-dihydroxychalcone]", "EC50 at 54 h": "> 330 µM"}
